- Tested on: 628569-122-R-J1-PDC complex spheroid viability
- assay: Anticancer human tumor 628569-122-R-J1-PDC patient-derived head and neck squamous carcinoma cell line growth inhibition [CLK]
- condition-context: curve of first compound; second compound 0.316 µM
pIC50: −log10 of the molar value.
reported-endpoint: pIC50

Nc1ccccc1NC(=O)c1ccc(CNC(=O)OCc2cccnc2)cc1 + CNC(=O)c1ccc(Nc2nc(OC3CCCC3)c3c(-c4ccc5nc(C)oc5c4)c[nH]c3n2)c(OC)c1 | < 5.00
COC1C=CCC(C)C(C)S(=O)(=O)NC(=O)c2ccc3c(c2)N(CC2CCC21)CC1(CCCc2cc(Cl)ccc21)CO3 (stereo not given) + CNC(=O)c1ccc(Nc2nc(OC3CCCC3)c3c(-c4ccc5nc(C)oc5c4)c[nH]c3n2)c(OC)c1 | > 7.50
CC1(C)CCC(CN2CCN(c3ccc(C(=O)NS(=O)(=O)c4ccc(NCC5CCOCC5)c([N+](=O)[O-])c4)c(Oc4cnc5[nH]ccc5c4)c3)CC2)=C(c2ccc(Cl)cc2)C1 + CNC(=O)c1ccc(Nc2nc(OC3CCCC3)c3c(-c4ccc5nc(C)oc5c4)c[nH]c3n2)c(OC)c1 | < 5.00
CC(Nc1ccc2c(c1)OCCn1cc(N3C(=O)OCC3C(F)F)nc1-2)C(N)=O (stereo not given) + CNC(=O)c1ccc(Nc2nc(OC3CCCC3)c3c(-c4ccc5nc(C)oc5c4)c[nH]c3n2)c(OC)c1 | > 7.50

Inquiry: Look up and report measured pIC50 for this entry: CC(Nc1ccc2c(c1)OCCn1cc(N3C(=O)OCC3C(F)F)nc1-2)C(N)=O (stereo not given) + CN1CCN(c2cc(C(=O)Nc3cc4cc(-c5cnn(C)c5)ccc4cn3)ccn2)CC1
Reply text: > 7.50

====

- Test system: 628569-122-R-J1-PDC complex spheroid viability
- assay: Anticancer human tumor 628569-122-R-J1-PDC cell line growth inhibition [CLK]; active means viability on the fitted dose curve at most 10% of control; inactive means the rest;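 also: spheroids exposed to agents for seven days before readout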
- condition-context: second compound 0.0316 µM; first compound 3.16 µM
Please answer using one outcome listed in 1 (active), 0 (inactive)

Solved cases (5 shown):
CC(=O)O[C@H]1C(=O)[C@@]2(C)[C@H]([C@H](OC(=O)c3ccccc3)[C@]3(O)C[C@H](OC(=O)[C@H](O)[C@@H](NC(=O)c4ccccc4)c4ccccc4)C(C)=C1C3(C)C)[C@]1(OC(C)=O)CO[C@@H]1C[C@@H]2O + CNC(=O)c1ccc(Nc2nc(OC3CCCC3)c3c(-c4ccc5nc(C)oc5c4)c[nH]c3n2)c(OC)c1 | 0
COc1cccc2c1C(=O)c1c(O)c3c(c(O)c1C2=O)CC(O)(C(=O)CO)CC3OC1CC(N)C(O)C(C)O1 (stereo not given) + CN1CCN(c2cc(C(=O)Nc3cc4cc(-c5cnn(C)c5)ccc4cn3)ccn2)CC1 | 1
COC1C=CCC(C)C(C)S(=O)(=O)NC(=O)c2ccc3c(c2)N(CC2CCC21)CC1(CCCc2cc(Cl)ccc21)CO3 (stereo not given) + CN1CCN(c2cc(C(=O)Nc3cc4cc(-c5cnn(C)c5)ccc4cn3)ccn2)CC1 | 0
O=c1[nH]cc(F)c(=O)[nH]1 + CNC(=O)c1ccc(Nc2nc(OC3CCCC3)c3c(-c4ccc5nc(C)oc5c4)c[nH]c3n2)c(OC)c1 | 0
CC1COCCN1c1cc(C2(S(C)(=N)=O)CC2)nc(-c2ccnc3[nH]ccc23)n1 (stereo not given) + CNC(=O)c1ccc(Nc2nc(OC3CCCC3)c3c(-c4ccc5nc(C)oc5c4)c[nH]c3n2)c(OC)c1 | 0

Inquiry: I'd appreciate the recorded outcome for CC(Nc1ccc2c(c1)OCCn1cc(N3C(=O)OCC3C(F)F)nc1-2)C(N)=O (stereo not given) + CNC(=O)c1ccc(Nc2nc(OC3CCCC3)c3c(-c4ccc5nc(C)oc5c4)c[nH]c3n2)c(OC)c1 from this test.
Reply text: 0

Inquiry: I'd appreciate the recorded outcome for C=CC(=O)N1CCN(c2nc(=O)n(-c3c(C)ccnc3C(C)C)c3nc(-c4c(O)cccc4F)c(F)cc23)C(C)C1 (stereo not given) + CN1CCN(c2cc(C(=O)Nc3cc4cc(-c5cnn(C)c5)ccc4cn3)ccn2)CC1 from this test.
Reply text: 0

Inquiry: I'd appreciate the recorded outcome for C#Cc1c(F)ccc2cc(O)cc(-c3ncc4c(N5CC6CCC(C5)N6)nc(OCC56CCCN5CC(F)C6)nc4c3F)c12 (stereo not given) + CN1CCN(c2cc(C(=O)Nc3cc4cc(-c5cnn(C)c5)ccc4cn3)ccn2)CC1 from this test.
Reply text: 0

Inquiry: I'd appreciate the recorded outcome for CC(Nc1ccc2c(c1)OCCn1cc(N3C(=O)OCC3C(F)F)nc1-2)C(N)=O (stereo not given) + CN1CCN(c2cc(C(=O)Nc3cc4cc(-c5cnn(C)c5)ccc4cn3)ccn2)CC1 from this test.
Reply text: 0

Inquiry: I'd appreciate the recorded outcome for Nc1ccccc1NC(=O)c1ccc(CNC(=O)OCc2cccnc2)cc1 + CNC(=O)c1ccc(Nc2nc(OC3CCCC3)c3c(-c4ccc5nc(C)oc5c4)c[nH]c3n2)c(OC)c1 from this test.
Reply text: 0

Inquiry: I'd appreciate the recorded outcome for CC1COCCN1c1cc(C2(S(C)(=N)=O)CC2)nc(-c2ccnc3[nH]ccc23)n1 (stereo not given) + CN1CCN(c2cc(C(=O)Nc3cc4cc(-c5cnn(C)c5)ccc4cn3)ccn2)CC1 from this test.
Reply text: 0

====

- Test system: 628569-122-R-J1-PDC complex spheroid viability
- assay: Anticancer human tumor 628569-122-R-J1-PDC cell line growth inhibition [CLK];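 also: spheroids exposed to agents for seven days before readout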;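 as to viability, T/C: 100% = DMSO vehicle control viability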
- condition-context: second compound 10 µM; first compound 3.16 µM; stronger effect = lower value
reported-endpoint: viability, T/C

Solved entries (count: 5):
Nc1ccn(C2OC(CO)C(O)C2(F)F)c(=O)n1 (stereo not given) + CN1CCN(c2cc(C(=O)Nc3cc4cc(-c5cnn(C)c5)ccc4cn3)ccn2)CC1 | 2.05%
O=C(c1cc(Cc2n[nH]c(=O)c3ccccc23)ccc1F)N1CCN(C(=O)C2CC2)CC1 + CNC(=O)c1ccc(Nc2nc(OC3CCCC3)c3c(-c4ccc5nc(C)oc5c4)c[nH]c3n2)c(OC)c1 | 56.1%
O=C(c1cc(Cc2n[nH]c(=O)c3ccccc23)ccc1F)N1CCN(C(=O)C2CC2)CC1 + CN1CCN(c2cc(C(=O)Nc3cc4cc(-c5cnn(C)c5)ccc4cn3)ccn2)CC1 | 3.68%
CCCS(=O)(=O)Nc1ccc(F)c(C(=O)c2c[nH]c3ncc(-c4ccc(Cl)cc4)cc23)c1F + CN1CCN(c2cc(C(=O)Nc3cc4cc(-c5cnn(C)c5)ccc4cn3)ccn2)CC1 | 1.53%
CC1COCCN1c1cc(C2(S(C)(=N)=O)CC2)nc(-c2ccnc3[nH]ccc23)n1 (stereo not given) + CNC(=O)c1ccc(Nc2nc(OC3CCCC3)c3c(-c4ccc5nc(C)oc5c4)c[nH]c3n2)c(OC)c1 | 39%

Now turn to the next molecule.
Inquiry: Look up and report measured viability, T/C for this entry: C=C(F)C(=O)N1CCN(c2nc(OCC3CCCN3C)nc3c2CCN(c2cccc4cccc(Cl)c24)C3)CC1CC#N (stereo not given) + CN1CCN(c2cc(C(=O)Nc3cc4cc(-c5cnn(C)c5)ccc4cn3)ccn2)CC1
Reply text: 0.98%

====

- Tested on: 628569-122-R-J1-PDC complex spheroid viability
- assay: Anticancer human tumor 628569-122-R-J1-PDC cell line growth inhibition [CLK]; active = viability on the fitted dose curve at most 10% of control; inactive = the rest;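 also: spheroids exposed to agents for seven days before readout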
- condition-context: second compound 10 µM; first compound 10 µM
Please answer using one outcome listed in active, inactive

Solved cases (2 shown):
COc1cccc2c1C(=O)c1c(O)c3c(c(O)c1C2=O)CC(O)(C(=O)CO)CC3OC1CC(N)C(O)C(C)O1 (stereo not drawn) + CN1CCN(c2cc(C(=O)Nc3cc4cc(-c5cnn(C)c5)ccc4cn3)ccn2)CC1 | active
COC1C=CCC(C)C(C)S(=O)(=O)NC(=O)c2ccc3c(c2)N(CC2CCC21)CC1(CCCc2cc(Cl)ccc21)CO3 (stereo not drawn) + CNC(=O)c1ccc(Nc2nc(OC3CCCC3)c3c(-c4ccc5nc(C)oc5c4)c[nH]c3n2)c(OC)c1 | inactive

Inquiry: I'd appreciate the recorded outcome for CCCS(=O)(=O)Nc1ccc(F)c(C(=O)c2c[nH]c3ncc(-c4ccc(Cl)cc4)cc23)c1F + CNC(=O)c1ccc(Nc2nc(OC3CCCC3)c3c(-c4ccc5nc(C)oc5c4)c[nH]c3n2)c(OC)c1 from this test.
Reply text: inactive

====

- Test system: 628569-122-R-J1-PDC complex spheroid viability
- assay: Anticancer human tumor 628569-122-R-J1-PDC cell line growth inhibition [CLK];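 also: spheroids exposed to agents for seven days before readout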;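 as to viability, T/C: 100% = DMSO vehicle control viability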
- condition-context: second compound 10 µM; first compound 0.316 µM; stronger effect = lower value
Consider the following compounds and their measured viability, T/C readings.
Express the result in % but write the number alone.

Solved entries (count: 2):
Nc1ccccc1NC(=O)c1ccc(CNC(=O)OCc2cccnc2)cc1 + CN1CCN(c2cc(C(=O)Nc3cc4cc(-c5cnn(C)c5)ccc4cn3)ccn2)CC1 | 5.47
C=CC(=O)N1CCN(c2nc(=O)n(-c3c(C)ccnc3C(C)C)c3nc(-c4c(O)cccc4F)c(F)cc23)C(C)C1 (stereo not drawn) + CN1CCN(c2cc(C(=O)Nc3cc4cc(-c5cnn(C)c5)ccc4cn3)ccn2)CC1 | 2.2

Inquiry: Please report viability, T/C with 628569-122-R-J1-PDC complex spheroid viability for item COC1C=CCC(C)C(C)S(=O)(=O)NC(=O)c2ccc3c(c2)N(CC2CCC21)CC1(CCCc2cc(Cl)ccc21)CO3 (stereo not drawn) + CN1CCN(c2cc(C(=O)Nc3cc4cc(-c5cnn(C)c5)ccc4cn3)ccn2)CC1 .
Reply text: 2.06
